Origin of the recorded values: a melting point compilation (Tetko et al.; mined from patent text by program, amines drawn as free bases though some values may be those of a salt)

Attribute: melting point

• O=C1N(Cc2sc(C(F)(F)F)cc2O)c2ccccc2C12COc1cc3c(cc12)OCO3 (stereo not drawn) = 225 to 227 °C
• O=S1(=O)N=CN(C2CC2)c2c1ccc(F)c2Cl = 147 to 148 °C

Kindly consider the entry below.
Q. Give reported melting point value for COCc1cc2c(cc1O)CCC1C2CCC2(C)C(=O)CCC12 (stereo not drawn)
A. 149 to 151 °C

###

melting point for assorted compounds

• CCOC(=O)c1ccc(NCc2nccnc2OCc2ccccc2)cc1 = 112 °C
• CC(c1ccncc1F)C(O)(Cn1cncn1)c1ccc(F)cc1F (configuration not stated) = 188 to 189 °C
• CN1CCN(c2cc(Cl)cc3c2c(=O)n(Cc2cccc([N+](=O)[O-])c2)c(=O)n3Cc2ccccc2)CC1 = 200 to 205 °C

Q. Please list melting point recorded for the compound "CCCC(=O)Nc1n[nH]c2cc(-c3ccc(CC)cc3)ccc12"
A. 210 °C

Q. Tell me melting point reported for "Cc1c(C(=O)Nc2ccc(N3CCC(N(C)C)CC3)c(C#N)c2)cnn1-c1ccc(Cl)cc1"
A. 210 to 213 °C

Q. Report melting point for "COc1cc(NC(=O)OC(C)(C)C)c(N)cc1-c1cc(F)ccc1F"
A. 144 °C
